- test details: AUC (0 to infinity) in Rattus norvegicus Sprague-Dawley (rat) at 5 mg/kg, iv
- Type: ADME, organism-based
- Set-up: time infinity, dose 5 mg/kg, route intravenous
- stated conditions: plasma
assay endpoint: AUC(0-inf) (ng·h/mL)

query_smiles=CCCN1CCN(C(=O)c2ccc3[nH]c(=O)c4c(c3c2)CCSC4)CC1 assay_endpoint=AUC(0-inf) recorded_value=1300

---

- measurement target: Poly [ADP-ribose] polymerase 1 (Homo sapiens, UniProt P09874)
- Sequence (P09874 whole entry): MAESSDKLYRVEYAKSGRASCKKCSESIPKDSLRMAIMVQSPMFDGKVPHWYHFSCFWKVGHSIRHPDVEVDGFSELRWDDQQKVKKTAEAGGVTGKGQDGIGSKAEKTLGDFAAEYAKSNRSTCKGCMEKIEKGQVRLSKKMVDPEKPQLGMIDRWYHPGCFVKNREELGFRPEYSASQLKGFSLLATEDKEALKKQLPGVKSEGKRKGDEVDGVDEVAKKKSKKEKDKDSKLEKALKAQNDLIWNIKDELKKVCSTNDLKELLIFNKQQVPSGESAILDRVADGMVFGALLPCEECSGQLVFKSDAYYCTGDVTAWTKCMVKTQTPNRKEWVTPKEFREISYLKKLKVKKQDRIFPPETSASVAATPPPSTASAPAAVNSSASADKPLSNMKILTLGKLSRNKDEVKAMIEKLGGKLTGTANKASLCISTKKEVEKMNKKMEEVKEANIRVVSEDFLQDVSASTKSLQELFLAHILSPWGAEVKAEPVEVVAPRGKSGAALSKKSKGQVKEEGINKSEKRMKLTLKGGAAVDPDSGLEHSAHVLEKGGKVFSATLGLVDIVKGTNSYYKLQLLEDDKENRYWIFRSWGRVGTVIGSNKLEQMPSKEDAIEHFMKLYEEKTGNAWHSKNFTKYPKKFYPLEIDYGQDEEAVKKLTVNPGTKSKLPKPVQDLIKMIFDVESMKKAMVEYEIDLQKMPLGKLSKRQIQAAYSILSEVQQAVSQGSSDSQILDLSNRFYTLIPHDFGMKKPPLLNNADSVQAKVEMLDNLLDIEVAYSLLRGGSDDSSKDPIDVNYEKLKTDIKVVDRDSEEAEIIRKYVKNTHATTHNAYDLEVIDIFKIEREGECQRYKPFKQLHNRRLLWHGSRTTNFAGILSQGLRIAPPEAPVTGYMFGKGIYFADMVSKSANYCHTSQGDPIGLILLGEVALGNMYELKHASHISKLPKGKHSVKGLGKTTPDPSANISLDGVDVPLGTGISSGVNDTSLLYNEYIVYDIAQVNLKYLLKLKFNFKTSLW
- test details: Inhibition of PARP-1 (unknown origin) expressed in CHO-K1 cells assessed as depletion of NAD(P)H after 2 hr by CCK-8 assay
- Type: cell-based
assay endpoint: ED50 (nM)

query_smiles=O=C(c1ccc2[nH]c(=O)c3c(c2c1)CCSC3)N1CCN(C2CCCC2)CC1 unit_of_measurement=nM result_comparator== recorded_value=550
query_smiles=NCCCCNC(=O)c1ccc2[nH]c(=O)c3c(c2c1)CCSC3 unit_of_measurement=nM result_comparator=> recorded_value=30000
query_smiles=CN1CCN(C(=O)c2ccc3[nH]c(=O)c4c(c3c2)CCSC4)CC1 unit_of_measurement=nM result_comparator== recorded_value=2530
query_smiles=CCCCCN1CCN(C(=O)c2ccc3[nH]c(=O)c4c(c3c2)CCSC4)CC1 unit_of_measurement=nM result_comparator== recorded_value=610
query_smiles=O=C(c1ccc2[nH]c(=O)c3c(c2c1)CCSC3)N1CCN(CCc2ccccc2)CC1 unit_of_measurement=nM result_comparator== recorded_value=2190
query_smiles=CCCCN1CCN(C(=O)c2ccc3[nH]c(=O)c4c(c3c2)CCSC4)CC1 unit_of_measurement=nM result_comparator== recorded_value=770
query_smiles=CCN1CCN(C(=O)c2ccc3[nH]c(=O)c4c(c3c2)CCSC4)CC1 unit_of_measurement=nM result_comparator== recorded_value=2000
query_smiles=CCCCCCN1CCN(C(=O)c2ccc3[nH]c(=O)c4c(c3c2)CCSC4)CC1 unit_of_measurement=nM result_comparator== recorded_value=2910
query_smiles=O=C(NCCN1CCN(c2ccncc2)CC1)c1ccc2[nH]c(=O)c3c(c2c1)CCSC3 unit_of_measurement=nM result_comparator=> recorded_value=30000
query_smiles=O=C(NCCN1CCNCC1)c1ccc2[nH]c(=O)c3c(c2c1)CCSC3 unit_of_measurement=nM result_comparator=> recorded_value=30000
